Values compiled from Sander's compilation of Henry's law constants (doi:10.1021/es00047a026).

The entries below come with measured Henry solubility constant Hcp values attached.
experiment: Henry solubility constant Hcp at 298.15 K (mol/(m3 Pa)); settings: reference: Hoff et al. (1993)
Reply with just the number.

Before answering, review these 8 worked examples.
ClC(Cl)(Cl)Cl ... 0.00036
CC(Cl)(Cl)Cl ... 0.00053
CC(C)=O ... 0.27
Clc1cccc(Cl)c1 ... 0.0034
Cc1ccccc1 ... 0.0013
ClC=C(Cl)Cl ... 0.0011
c1ccccc1 ... 0.0017
ClC(Cl)=C(Cl)Cl ... 0.00063

What Henry solubility constant Hcp value was documented for this molecule, Clc1ccccc1 ? 0.0026

Please answer likewise for ClCCl 0.0041
